Molecular target: T1, Spy Q25R (E. coli, UniProt P77754 24-161, Q25R)
T1 construct: N-terminal serine from the Sumo fusion construct; the footnote says it of Spy purification in general; Spy, E. coli, mature protein; numbers count on: the mature protein; Variant of m1 found by genetic selection, remade by site-directed mutagenesis; also called super-Spy variant; source: purified; not shown: SUMO, N-terminal, cleaved (from the N-terminal serine said of Spy purification in general)
T1 sequence: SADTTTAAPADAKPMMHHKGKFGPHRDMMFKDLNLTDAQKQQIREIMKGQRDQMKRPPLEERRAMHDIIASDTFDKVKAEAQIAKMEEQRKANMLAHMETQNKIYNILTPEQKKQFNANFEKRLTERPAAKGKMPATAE
Test: BLI; biotinylated Im7 L53A I54A immobilised on streptavidin sensors (Octet RED); Spy variants at 2, 1, 0.5, 0.25 and 0.125 µM; 25°C; 40 mM HEPES, 150 mM NaCl, pH 7.5; 1:1 binding model, KD = koff/kon; apparent
Conditions: both partners purified
property measured: pKd
Give bare numbers, as −log10 of the molar value.

The binder identified as Biotinylated Im7 L53A I54A (natural protein, biotin (EZ-link NHS-biotin at 1:1 molar ratio; site not stated), N-terminal serine from the Sumo fusion construct; the footnote says it of Im7 purification in general; immunity protein 7 (Im7), colicin E7 immunity protein; Same protein as m10 with biotin; held on streptavidin sensors; also called biotin-conjugated Im7 L53A I54A; immunity protein 7 L53A I54A; source: purified from a Sumo fusion construct (Quan et al., 2011), biotinylated with EZ-link …) SMELKNSISDYTEAEFVQLLKEIEKENVAATDDVLDVLLEHFVKITEHPDGTDAAYYPSDNRDDSPEGIVKEIKEWRAANGKPGFKQG registered its pKd at 6.06
